SYSTEM_TESTED: Androgen Receptor (Homo sapiens, UniProt P10275+P40337, T878A)
Construct: Compounds have been evaluated in this assay in LNCaP and/or VCaP cells utilizing similar protocols; endogenous in cells; host or cells: LNCaP cells
Sequence (P10275 whole entry T878A): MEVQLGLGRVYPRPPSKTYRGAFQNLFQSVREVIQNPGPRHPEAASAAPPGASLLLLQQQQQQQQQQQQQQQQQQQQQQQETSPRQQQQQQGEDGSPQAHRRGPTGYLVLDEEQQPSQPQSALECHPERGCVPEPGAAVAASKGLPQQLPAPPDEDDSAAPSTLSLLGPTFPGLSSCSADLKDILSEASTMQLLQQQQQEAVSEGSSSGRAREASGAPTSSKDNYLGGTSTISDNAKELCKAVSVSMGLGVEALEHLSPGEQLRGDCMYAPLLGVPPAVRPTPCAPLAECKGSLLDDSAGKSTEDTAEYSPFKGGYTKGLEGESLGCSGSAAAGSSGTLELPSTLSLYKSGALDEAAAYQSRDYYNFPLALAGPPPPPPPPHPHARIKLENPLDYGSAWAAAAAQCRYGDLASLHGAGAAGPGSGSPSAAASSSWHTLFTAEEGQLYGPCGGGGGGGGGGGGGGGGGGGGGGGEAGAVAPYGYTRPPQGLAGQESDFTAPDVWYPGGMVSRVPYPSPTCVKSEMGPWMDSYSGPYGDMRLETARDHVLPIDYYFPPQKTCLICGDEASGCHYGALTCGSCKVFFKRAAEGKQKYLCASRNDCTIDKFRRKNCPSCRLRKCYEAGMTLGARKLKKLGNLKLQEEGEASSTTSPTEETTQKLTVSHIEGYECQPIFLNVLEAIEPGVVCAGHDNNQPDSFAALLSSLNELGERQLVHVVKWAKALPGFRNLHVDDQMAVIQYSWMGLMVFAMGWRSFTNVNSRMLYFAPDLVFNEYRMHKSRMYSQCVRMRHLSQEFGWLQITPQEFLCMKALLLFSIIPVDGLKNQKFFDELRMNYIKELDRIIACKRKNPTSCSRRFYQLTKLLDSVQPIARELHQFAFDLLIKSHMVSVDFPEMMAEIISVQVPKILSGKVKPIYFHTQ
Sequence (P40337 whole entry): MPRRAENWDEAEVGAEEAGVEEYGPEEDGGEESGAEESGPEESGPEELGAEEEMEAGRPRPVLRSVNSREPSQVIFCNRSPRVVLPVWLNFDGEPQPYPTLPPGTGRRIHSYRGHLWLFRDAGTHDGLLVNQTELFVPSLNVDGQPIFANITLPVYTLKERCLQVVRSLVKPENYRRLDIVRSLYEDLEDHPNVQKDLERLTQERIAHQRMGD
Sequence (Q15369 whole entry partner): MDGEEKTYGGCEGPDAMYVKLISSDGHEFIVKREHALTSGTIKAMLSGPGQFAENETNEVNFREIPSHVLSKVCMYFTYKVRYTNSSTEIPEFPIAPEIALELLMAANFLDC
Sequence (Q15370 whole entry partner): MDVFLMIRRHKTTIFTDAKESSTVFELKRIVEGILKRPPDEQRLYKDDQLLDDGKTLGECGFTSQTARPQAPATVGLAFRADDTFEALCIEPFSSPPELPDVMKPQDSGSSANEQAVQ
METHOD_NOTES: Androgen Receptor ELISA assay (PathScan AR ELISA) in LNCaP cells: AR degradation, Dmax and DC50
Type: cell-based
MEASUREMENT_CONDITIONS: concentration that caused 50% Androgen Receptor degradation
# reported DC50; entries follow

Below are worked cases with known answers.
Cc1ncsc1-c1ccc(CNC(=O)[C@@H]2C[C@@H](O)CN2C(=O)[C@@H](NC(=O)COCCCCCOc2ccc(-c3ccc(N4C(=S)N(c5ccc(C#N)c(C(F)(F)F)c5)C(=O)C4(C)C)cc3)cc2)C(C)(C)C)cc1 [Example 71]
< 50 nM
Cc1ncsc1-c1ccc(CNC(=O)[C@@H]2C[C@@H](O)CN2C(=O)[C@@H](NC(=O)COCCCOCCCCCOc2ccc(N3C(=S)N(c4ccc(C#N)c(C(F)(F)F)c4)C(=O)C3(C)C)cc2F)C(C)(C)C)cc1 [Example 3]
< 50 nM
Cc1ncsc1-c1ccc(CNC(=O)[C@@H]2C[C@@H](O)CN2C(=O)[C@H](C(C)C)N2Cc3ccc(F)cc3C2=O)c(OCCOCCOCCOc2ccc(N3C(=S)N(c4ccc(C#N)c(C(F)(F)F)c4)C(=O)C3(C)C)cc2)c1 [Example 83]
51 to 500 nM

Now look at this entry.
Query Cc1ncsc1-c1ccc(CNC(=O)[C@@H]2C[C@@H](O)CN2C(=O)[C@@H](NC(=O)CCOCCNC(=O)CCCc2ccc(N3C(=S)N(c4ccc(C#N)c(C(F)(F)F)c4)C(=O)C3(C)C)cc2)C(C)(C)C)cc1 [Example 232] yields DC50 of > 501 nM

---

The compounds listed here are annotated with their DC50.
SYSTEM_TESTED: Androgen Receptor (Homo sapiens)
Construct: endogenous in cells; host or cells: VCaP cells
METHOD_NOTES: Androgen Receptor ELISA assay (PathScan AR ELISA) in VCaP cells: AR degradation, Dmax and DC50
Format: cell-based
MEASUREMENT_CONDITIONS: VCaP cells; concentration that caused 50% Androgen Receptor degradation; read-out: VCaP DC50

Past entries and their recorded results:
Cc1ncsc1-c1ccc(CNC(=O)[C@@H]2C[C@@H](O)CN2C(=O)[C@@H](NC(=O)COCCNc2ccc(-c3ccc(C(=O)NC4C(C)(C)C(Oc5ccc(C#N)c(Cl)c5)C4(C)C)cc3)cc2)C(C)(C)C)cc1 (stereo partly shown) [Example 204]
< 50 nM
Cc1ncsc1-c1ccc(CNC(=O)[C@@H]2C[C@@H](O)CN2C(=O)[C@@H](NC(=O)COCCCCOc2ccc(-c3ccc(N4C(=S)N(c5cnc(C#N)c(C(F)(F)F)c5)C(=O)C45CCC5)cc3)cc2)C(C)(C)C)cc1 [Example 199]
< 50 nM
CC(C)(C)[C@H](NC(=O)COCCCCOc1ccc(-c2ccc(N3C(=S)N(c4cnc(C#N)c(C(F)(F)F)c4)C(=O)C3(C)C)cc2)cc1)C(=O)N1C[C@H](O)C[C@H]1C(=O)NCc1ccc(-c2cnco2)cc1 [Example 190]
< 50 nM
Cc1ncoc1-c1ccc(CNC(=O)[C@@H]2C[C@@H](O)CN2C(=O)[C@@H](NC(=O)COCCCCOc2ccc(-c3ccc(N4C(=S)N(c5cnc(C#N)c(C(F)(F)F)c5)C(=O)C4(C)C)cc3)cc2)C(C)(C)C)cc1 [Example 192]
< 50 nM

Short answer for Cc1ncsc1-c1ccc(CNC(=O)[C@@H]2C[C@@H](O)CN2C(=O)[C@@H](NC(=O)COCCCCOc2ccc(-c3ccc(N4C(=S)N(c5cnc(C#N)c(C(F)(F)F)c5)C(=O)C4(C)C)cc3)cc2)C(C)(C)C)cc1 [Example 193] : DC50 was < 50 nM

DC50 reported for this compound Cc1ncsc1-c1ccc([C@H](C)NC(=O)[C@@H]2C[C@@H](O)CN2C(=O)[C@@H](NC(=O)COCCCCOc2ccc(-c3ccc(N4C(=S)N(c5cnc(C#N)c(C(F)(F)F)c5)C(=O)C4(C)C)cc3)cc2)C(C)(C)C)cc1 [Example 194] : < 50 nM

// DC50 lookup, compound = Cc1ncsc1-c1ccc(CNC(=O)[C@@H]2C[C@@H](O)CN2C(=O)[C@@H](NC(=O)COCCCCOc2ccc(-c3ccc(N4C(=S)N(c5cnc(C#N)c(C(F)(F)F)c5)C(=O)C4(C)C)c(F)c3)cc2)C(C)(C)C)cc1 [Example 197] , result: < 50 nM

---

Below: a set of entries, each annotated with reported DC50.
SYSTEM_TESTED: Androgen Receptor (Homo sapiens, UniProt P10275+P40337, T878A)
Construct: Compounds have been evaluated in this assay in LNCaP and/or VCaP cells utilizing similar protocols; endogenous in cells; host or cells: LNCaP cells
METHOD_NOTES: Androgen Receptor ELISA assay (PathScan AR ELISA) in LNCaP cells: AR degradation, Dmax and DC50
Type: cell-based
MEASUREMENT_CONDITIONS: concentration that caused 50% Androgen Receptor degradation

Look over these answered cases.
Cc1ncsc1-c1ccc(CNC(=O)[C@@H]2C[C@@H](O)CN2C(=O)[C@@H](NC(=O)COCCCCCNC(=O)CCCc2ccc(N3C(=S)N(c4ccc(C#N)c(C(F)(F)F)c4)C(=O)C3(C)C)cc2)C(C)(C)C)cc1
0.051 to 0.5 µM
Cc1ncsc1-c1ccc(CNC(=O)[C@@H]2C[C@@H](O)CN2C(=O)[C@@H](NC(=O)CCOCCCOc2ccc(N3C(=S)N(c4ccc(C#N)c(C(F)(F)F)c4)C(=O)C3(C)C)cc2)C(C)(C)C)cc1
0.051 to 0.5 µM
Cc1ncsc1-c1ccc(CNC(=O)[C@@H]2C[C@@H](O)CN2C(=O)[C@H](C(C)C)N2Cc3ccccc3C2=O)c(OCCCCOCCCCOCCCCOc2ccc(N3C(=S)N(c4ccc(C#N)c(C(F)(F)F)c4)C(=O)C3(C)C)cc2)c1
0.051 to 0.5 µM

Moving on to the next compound.
# DC50 of "Cc1ncsc1-c1ccc(CNC(=O)[C@@H]2C[C@@H](O)CN2C(=O)[C@@H](NC(=O)COCCCOCCCCOc2ccc(N3C(=S)N(c4ccc(C#N)c(Cl)c4)C(=O)C3(C)C)cc2)C(C)(C)C)cc1" = < 0.05 µM

---

SYSTEM_TESTED: Androgen Receptor (Homo sapiens, UniProt P10275)
Construct: endogenous in cells; host or cells: VCaP cells
Sequence (P10275 whole entry): as the sequence (P10275 whole entry T878A) above, with A878T counted along it
METHOD_NOTES: Androgen Receptor ELISA assay (PathScan AR ELISA) in VCaP cells: AR degradation, Dmax and DC50
Type: cell-based
MEASUREMENT_CONDITIONS: VCaP, read-out: VCaP Dmax (%)
RECORDED_ENDPOINT: Dmax

Here is how some compounds turned out for Dmax.
Cc1ncsc1-c1ccc([C@H](C)NC(=O)[C@@H]2C[C@@H](O)CN2C(=O)[C@@H](C(C)C)n2cc(-c3ccnc(N4CC[C@H](Oc5ccc(N6C(=S)N(c7ccc(C#N)c(C(F)(F)F)c7)C(=O)C6(C)C)cc5)C4)c3)cn2)cc1 [Example 610]
< 25%
Cc1ncsc1-c1ccc([C@H](C)NC(=O)[C@@H]2C[C@@H](O)CN2C(=O)C(C(C)C)n2cnc(CCCCOCCCCCOc3ccc(N4C(=S)N(c5ccc(C#N)c(C(F)(F)F)c5)C(=O)C4(C)C)cc3)c2)cc1 (stereo partly drawn) [Example 650]
< 25%
Cc1ncsc1-c1ccc(CNC(=O)[C@@H]2C[C@@H](O)CN2C(=O)[C@@H](NC(=O)COc2ccc3cc(COc4ccc(N5C(=S)N(c6ccc(C#N)c(C(F)(F)F)c6)C(=O)C5(C)C)cc4)ccc3c2)C(C)(C)C)cc1 [Example 378]
51 to 70%
Cc1ncsc1-c1ccc(CNC(=O)[C@@H]2C[C@@H](O)CN2C(=O)[C@@H](NC(=O)CCCOCC#CC#CCOc2ccc(N3C(=S)N(c4ccc(C#N)c(C(F)(F)F)c4)C(=O)C3(C)C)cc2)C(C)(C)C)cc1 [Example 56]
< 25%
C[C@H](NC(=O)[C@@H]1C[C@@H](O)CN1C(=O)[C@@H](NC(=O)COCCCOCCCCCOc1ccc(N2C(=S)N(c3ccc(C#N)c(C(F)(F)F)c3)C(=O)C2(C)C)cc1)C(C)(C)C)c1ccc(-c2nccn2C)cc1 [Example 452]
< 25%

Form field Dmax for item Cc1ncsc1-c1ccc(CNC(=O)[C@@H]2C[C@@H](O)CN2C(=O)[C@@H](NC(=O)COCCCOCCCCOc2ccc(N3C(=S)N(c4ccc(C#N)c(Cl)c4)C(=O)C3(C)C)cc2F)C(C)(C)C)cc1 [Example 41] on Androgen Receptor (Homo sapiens, UniProt P10275): > 71%

The compound Cc1ncsc1-c1ccc([C@H](C)NC(=O)C2C[C@@H](O)CN2C(=O)C(NC(=O)CN2C3CCC2CN(CCCCc2ccc(C(=O)N[C@H]4C(C)(C)[C@H](Oc5ccc(C#N)c(Cl)c5)C4(C)C)cn2)C3)C(C)(C)C)cc1 (stereo partly drawn) [Example 840] on Androgen Receptor (Homo sapiens, UniProt P10275): Dmax was > 71%

Androgen Receptor (Homo sapiens, UniProt P10275) data for Cc1ncsc1-c1ccc([C@H](C)NC(=O)[C@@H]2C[C@@H](O)CN2C(=O)[C@@H](NC(=O)CN2CCO[C@@H](CN3CCO[C@@H](COc4ccc(N5C(=S)N(c6ccc(C#N)c(C(F)(F)F)c6)C(=O)C5(C)C)cc4)C3)C2)C(C)(C)C)cc1 [Example 667] ; its Dmax: < 25%

Reading of Dmax for Cc1ncoc1-c1ccc(CNC(=O)[C@@H]2C[C@@H](O)CN2C(=O)[C@@H](NC(=O)COCCCOCCCCOc2ccc(N3C(=S)N(c4ccc(C#N)c(Cl)c4)C(=O)C3(C)C)cc2F)C(C)(C)C)cc1 [Example 44] with Androgen Receptor (Homo sapiens, UniProt P10275): > 71%
